Values from patent US20050244864A1

# measurement description: Probe fluorescence ratio response to oleate:BSA complex, relative to ADIFAB2 (ΔR/ΔRAD2)
# Assay type: binding
# conditions: fluorescence response (R-Ro) relative to ADIFAB2; oleate
observation type: ΔR/ΔRAD2 OA

molecule	experimental result
L2P8B8: acrylodan-labeled rI-FABP-L72A mutein: M18 WT, G31 WT, F55 WT, A73 F (protein, UniProt P02693 2-132, looked up, variant L72A A73F, acrylodan label, acrylodan-labeled rI-FABP-L72A mutein: M18 WT, G31 WT, F55 WT, A73 F) Fatty acid-binding protein, …: AFDGTWKVDRNENYEKFMEKMGINVVKRKLGAHDNLKLTITQEGNKFTVKESSNFRNIDVVFELGVDFAYSAFDGTELTGTWTMEGNKLVGKFKRVDNGKELIAVREISGNELIQTYTYEGVEAKRIFKKE	0.6
